target: troponin T (TnT) (Homo sapiens); test: Determination of Kd via k-ELISA (Friguet procedure, preincubation of phage with soluble TnT); assay type: binding; settings: assumed stoichiometry 1:5; k-ELISA, phages ~10^10 pfu/mL (about 16 pM) preincubated with TnT 0 to 4 ng/mL, wells precoated 0.25 μg/mL TnT, 0.01% myoglobin blocking, absorbance 370 nm every 70 s for 10 min; linear slope regression; triplicate; phage-displayed peptide
property-name: Kd (nM)
Respond with the bare value in nM.

## Input Identify measured Kd associated with B7: TnT-binding M13 phage clone displaying 12-amino-acid peptide (HRSMPTPLWYTA in Table 2) on pIII
## Output 0.143

====

Measured pKd, listed per entry.
target: troponin T (TnT) (Homo sapiens); assay: Determination of Kd via k-ELISA (Friguet procedure, preincubation of phage with soluble TnT); assay type: binding; conditions: assumed stoichiometry 1:2; k-ELISA, phages ~10^10 pfu/mL (about 16 pM) preincubated with TnT 0 to 4 ng/mL, wells precoated 0.25 μg/mL TnT, 0.01% myoglobin blocking, absorbance 370 nm every 70 s for 10 min; linear slope regression; triplicate; phage-displayed peptide
# pKd is unitless: minus log10 of the molar concentration; print number only

## Input Identify measured pKd associated with D11: TnT-binding M13 phage clone displaying 12-amino-acid peptide (ALKIGPETTIYM in Table 2) on pIII
## Output 9.67

Please find the next substance below.
## Input Identify measured pKd associated with B7: TnT-binding M13 phage clone displaying 12-amino-acid peptide (HRSMPTPLWYTA in Table 2) on pIII
## Output 9.78

====

Measured pKd, listed per entry.
biological target: troponin T (TnT) (Homo sapiens, UniProt P45379); experiment: Determination of Kd via k-ELISA (Friguet procedure, preincubation of phage with soluble TnT); format: binding; details: assumed stoichiometry 1:1; k-ELISA, phages ~10^10 pfu/mL (about 16 pM) preincubated with TnT 0 to 4 ng/mL, wells precoated 0.25 μg/mL TnT, 0.01% myoglobin blocking, absorbance 370 nm every 70 s for 10 min; linear slope regression; triplicate; phage-displayed peptide
# pKd is unitless: minus log10 of the molar concentration; print number only

## Input Identify measured pKd associated with D11: TnT-binding M13 phage clone displaying 12-amino-acid peptide (ALKIGPETTIYM in Table 2) on pIII
## Output 9.78

Others:
## Input Identify measured pKd associated with B7: TnT-binding M13 phage clone displaying 12-amino-acid peptide (HRSMPTPLWYTA in Table 2) on pIII
## Output 10.11
